B1: TPR 5TU (parent)
chain: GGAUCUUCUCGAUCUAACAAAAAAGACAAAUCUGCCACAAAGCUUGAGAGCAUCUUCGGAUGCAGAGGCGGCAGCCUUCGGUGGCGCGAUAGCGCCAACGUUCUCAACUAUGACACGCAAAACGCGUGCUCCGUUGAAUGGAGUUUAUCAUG

variants of: B1; test: polymerase ribozyme fitness, log enrichment relative to wild type (log ratio); higher = more active; in vitro selection for triplet polymerase activity
Fewer inactive variants are shown than the library holds.
I would appreciate it if you labelled entries Condition met when polymerase ribozyme fitness (log ratio) is -2 or higher, otherwise Condition not met.

Task item: Does the reported polymerase ribozyme fitness (log ratio) for C79A C108U fall at or above the -2 mark?
Reply: Condition not met

Task item: Would you say C51U C85G A115C shows polymerase ribozyme fitness (log ratio) at minimum -2?
Reply: Condition met

Task item: Record C69A C118G ; criterion: polymerase ribozyme fitness (log ratio) no lower than -2. Met?
Reply: Condition not met

Task item: I'd appreciate it if you could say whether A39C U53A G86C C105A A119U has polymerase ribozyme fitness (log ratio) at least equal to -2.
Reply: Condition not met

Task item: Decide: polymerase ribozyme fitness (log ratio) of A60U C87A C95A C108A A110G >= -2?
Reply: Condition not met

Task item: Could you verify whether the entry A19G G83A C85A C96U A97C A119G shows polymerase ribozyme fitness (log ratio) of no less than -2?
Reply: Condition not met

Task item: Does polymerase ribozyme fitness (log ratio) meet or surpass -2 for G62A C69U G92C ?
Reply: Condition not met

Task item: Could you tell me if the measured polymerase ribozyme fitness (log ratio) of A24U G59C reaches -2 or more?
Reply: Condition met

Task item: Is the recorded value of polymerase ribozyme fitness (log ratio) equal to or greater than -2 for this variant? A30C C54U C96G G141A
Reply: Condition not met

Task item: Could you please find out whether C14G C27U G48A C57A A60U G88C A106U has polymerase ribozyme fitness (log ratio) that meets -2 or exceeds it?
Reply: Condition not met

Task item: State whether the measured polymerase ribozyme fitness (log ratio) reaches -2, counting equality as reaching it, for A17C C99A
Reply: Condition met

Task item: Given the entry A30G G42U A52C C57A C96A A120G , answer whether its polymerase ribozyme fitness (log ratio) meets or surpasses -2.
Reply: Condition not met

Task item: Does the variant G81U C96U A150C have recorded polymerase ribozyme fitness (log ratio) that is -2 or more?
Reply: Condition not met

Task item: In plain terms: is recorded polymerase ribozyme fitness (log ratio) at least -2 for C5A A20U A21U A107G U145C C149U ?
Reply: Condition not met

Task item: Check if polymerase ribozyme fitness (log ratio) >= -2 (inclusive). Item: A37C A40U G83A C93G A142G
Reply: Condition not met

Task item: Could you tell me if the measured polymerase ribozyme fitness (log ratio) of C85U G141U reaches -2 or more?
Reply: Condition met

Task item: Decide: polymerase ribozyme fitness (log ratio) of C14G C96U >= -2?
Reply: Condition not met

Task item: Tell me whether polymerase ribozyme fitness (log ratio) is at least -2 here: C85A C96U A137U U144A
Reply: Condition not met

Task item: # bool: polymerase ribozyme fitness (log ratio) of C35G G59A C85A A106G G126U >= -2
Reply: Condition not met

Task item: Check this variant for polymerase ribozyme fitness (log ratio) at or above -2: G46C G59C G88A
Reply: Condition not met

Task item: Does the reported polymerase ribozyme fitness (log ratio) for A41C A60U A91G U134C fall at or above the -2 mark?
Reply: Condition not met

Task item: Record G25C U31C C32G U55A C75G C76U C79A A115G A120C C129A ; criterion: polymerase ribozyme fitness (log ratio) no lower than -2. Met?
Reply: Condition not met

Task item: Answer whether polymerase ribozyme fitness (log ratio) of A3C G88C is greater than or equal to -2.
Reply: Condition not met

Task item: Is reported polymerase ribozyme fitness (log ratio) greater than or equal to -2 here: A19C A23G A24G U31A C35A A40U G48A C79A G140A
Reply: Condition not met

Task item: Given C51G U56A A106U , state whether its polymerase ribozyme fitness (log ratio) is at least -2.
Reply: Condition not met

Task item: For this variant, is measured polymerase ribozyme fitness (log ratio) -2 or higher? G48A G59C
Reply: Condition met

Task item: Say whether C63U C75U C76U G80A U82A C108G C114U U148C shows polymerase ribozyme fitness (log ratio) of -2 or more.
Reply: Condition not met

Task item: Check this variant for polymerase ribozyme fitness (log ratio) at or above -2: C96U A119U G152C
Reply: Condition not met

Task item: Item A16G G126A G143A with polymerase ribozyme fitness (log ratio) of -2 or above?
Reply: Condition not met

Task item: Tell me whether polymerase ribozyme fitness (log ratio) is at least -2 here: A30U U44G A52C C85G A107G G126C U134A A147G
Reply: Condition not met

Task item: Assess whether reported polymerase ribozyme fitness (log ratio) for C35U C79A G81U C93A U102A U127A sits at -2 or higher.
Reply: Condition not met

Task item: Please tell me: is the variant A24G C35A G58A C93G C99A at or over -2 in terms of polymerase ribozyme fitness (log ratio)?
Reply: Condition not met

Task item: Decide: polymerase ribozyme fitness (log ratio) of U61C C96A A121G >= -2?
Reply: Condition not met

Task item: Please indicate if the recorded polymerase ribozyme fitness (log ratio) for C76U C85A A106C meets or exceeds -2.
Reply: Condition not met

Task item: Could you please find out whether A3G A41U C96U has polymerase ribozyme fitness (log ratio) that meets -2 or exceeds it?
Reply: Condition met

Task item: # check: polymerase ribozyme fitness (log ratio) of A66C C85G is greater than or equal to -2
Reply: Condition not met

Task item: Please indicate if the recorded polymerase ribozyme fitness (log ratio) for U53A C96A meets or exceeds -2.
Reply: Condition not met

Task item: Quick check, polymerase ribozyme fitness (log ratio) >= -2? A23U G46U C87U G88U A119G A120C G133U
Reply: Condition not met

Task item: Has C27G C72A C96A A107U a recorded polymerase ribozyme fitness (log ratio) greater than or equal to -2?
Reply: Condition not met

Task item: Is polymerase ribozyme fitness (log ratio) at least -2? Consider G48A C87U A91U C93U
Reply: Condition not met

Task item: Threshold query (polymerase ribozyme fitness (log ratio) >= -2) on C10A G67C C93G C99G A137U U146A
Reply: Condition not met

Task item: Check this variant for polymerase ribozyme fitness (log ratio) at or above -2: A17G G50A U55G A89U C93A
Reply: Condition not met

Task item: Say whether C8G A12G G42C U82A C95U C108U G136A G143A A150U shows polymerase ribozyme fitness (log ratio) of -2 or more.
Reply: Condition not met

Task item: Does G34A A37C C43U C125G U130A C149A have a reported polymerase ribozyme fitness (log ratio) of at least -2?
Reply: Condition not met

Task item: Could you please find out whether U55A A138G has polymerase ribozyme fitness (log ratio) that meets -2 or exceeds it?
Reply: Condition not met

Task item: Is polymerase ribozyme fitness (log ratio) for U33C C87G G152A at or above -2?
Reply: Condition not met

Task item: Hi, just wondering whether U55C G83C A115C C132U shows polymerase ribozyme fitness (log ratio) of -2 or higher.
Reply: Condition not met

Task item: Hi team, for U45A G83U C85G C95U , is the recorded polymerase ribozyme fitness (log ratio) at or above -2?
Reply: Condition not met

Task item: Quick check, polymerase ribozyme fitness (log ratio) >= -2? A22G A41C G62U C93A C95U C105A G112U C123G U134C G140A G141U
Reply: Condition not met

Task item: Is the recorded value of polymerase ribozyme fitness (log ratio) equal to or greater than -2 for this variant? U4C G94C C116G
Reply: Condition met

Task item: Reported polymerase ribozyme fitness (log ratio) reaches at least -2 for A21G C54U G140A U145G ?
Reply: Condition not met

Task item: Determine whether measured polymerase ribozyme fitness (log ratio) meets or exceeds -2 for C18U A91G
Reply: Condition not met

Task item: Is polymerase ribozyme fitness (log ratio) for C76A C96U G140U at or above -2?
Reply: Condition not met

Task item: Could you verify whether the entry A29U G59C U82A C93U shows polymerase ribozyme fitness (log ratio) of no less than -2?
Reply: Condition not met

Task item: Quick check: does C79A G80A G81A G88U have polymerase ribozyme fitness (log ratio) greater than or equal to -2?
Reply: Condition not met

Task item: # bool: polymerase ribozyme fitness (log ratio) of A37G C95U >= -2
Reply: Condition not met

Task item: Would you say A47G C75G A107U U135A U148C shows polymerase ribozyme fitness (log ratio) at minimum -2?
Reply: Condition not met

Task item: Identify whether the reported polymerase ribozyme fitness (log ratio) of the following variant is -2 or greater: U61A C105U
Reply: Condition met

Task item: Record A3G A147U ; criterion: polymerase ribozyme fitness (log ratio) no lower than -2. Met?
Reply: Condition met

Task item: Exam item: decide whether the reported polymerase ribozyme fitness (log ratio) for G48A G62A C96A C132G U134G A147C is at least -2.
Reply: Condition not met

Task item: Tell me whether polymerase ribozyme fitness (log ratio) is at least -2 here: A106C C116G
Reply: Condition met

Task item: Would you say C93U G141C shows polymerase ribozyme fitness (log ratio) at minimum -2?
Reply: Condition met

Task item: API: above_or_equal(metric=polymerase ribozyme fitness (log ratio), cutoff=-2) for item C51A C118G
Reply: Condition not met

Task item: Hi, just wondering whether A19C C35G U53A C57A G92A U101C shows polymerase ribozyme fitness (log ratio) of -2 or higher.
Reply: Condition not met

Task item: Does polymerase ribozyme fitness (log ratio) meet or surpass -2 for A39U C96A ?
Reply: Condition not met

Task item: I'd appreciate it if you could say whether G84U C131G has polymerase ribozyme fitness (log ratio) at least equal to -2.
Reply: Condition not met

Task item: # check: polymerase ribozyme fitness (log ratio) of A29C C87G G117A is greater than or equal to -2
Reply: Condition not met

Task item: Quick check, polymerase ribozyme fitness (log ratio) >= -2? U56A G80U
Reply: Condition met

Task item: Decide: polymerase ribozyme fitness (log ratio) of C51U C85G >= -2?
Reply: Condition not met

Task item: Does the variant G81U C96U have recorded polymerase ribozyme fitness (log ratio) that is -2 or more?
Reply: Condition met

Task item: Evaluate U101G A115U G117U A150C : polymerase ribozyme fitness (log ratio) at minimum -2?
Reply: Condition not met

Task item: Record C10G U55A C69G C93U C103G C116A ; criterion: polymerase ribozyme fitness (log ratio) no lower than -2. Met?
Reply: Condition not met

Task item: Please indicate if the recorded polymerase ribozyme fitness (log ratio) for G50A G68A C96G C99U G136A meets or exceeds -2.
Reply: Condition not met

Task item: Reported polymerase ribozyme fitness (log ratio) at or above -2? A47G A52G G58A A60G G62C U78G G88C
Reply: Condition not met

Task item: Quick check: does U4C A22U C32G C38G G65C G81A C118U C149U have polymerase ribozyme fitness (log ratio) greater than or equal to -2?
Reply: Condition not met

Task item: Is polymerase ribozyme fitness (log ratio) at least -2? Consider G46A C85A A150C
Reply: Condition not met

Task item: Identify whether the reported polymerase ribozyme fitness (log ratio) of the following variant is -2 or greater: C54A G81C
Reply: Condition met

Task item: Is the recorded value of polymerase ribozyme fitness (log ratio) equal to or greater than -2 for this variant? G92U U104G
Reply: Condition met

Task item: Is it the case that A21U C36G U44C C54G G74U A89G A120C U134G has polymerase ribozyme fitness (log ratio) reaching or exceeding -2?
Reply: Condition not met

Task item: Is reported polymerase ribozyme fitness (log ratio) greater than or equal to -2 here: A52C C93G
Reply: Condition not met

Task item: Check the entry C8U A12G A28C C38U C57G C95U : does polymerase ribozyme fitness (log ratio) equal or exceed -2?
Reply: Condition not met

Task item: Confirm if polymerase ribozyme fitness (log ratio) reported for the variant G84U A115U is -2 or above.
Reply: Condition not met

Task item: Hello, I need to know if U53A C95A C125U has measured polymerase ribozyme fitness (log ratio) not below -2. Thanks!
Reply: Condition met

Task item: Threshold query (polymerase ribozyme fitness (log ratio) >= -2) on C51A G58C
Reply: Condition not met

Task item: # check: polymerase ribozyme fitness (log ratio) of A28U A66U A73G G86U C103G C116U G152U is greater than or equal to -2
Reply: Condition not met

Task item: // inclusive: polymerase ribozyme fitness (log ratio) at least -2? input: A17U U31G C32A A150G
Reply: Condition not met

Task item: Hello, I need to know if C35A C95G has measured polymerase ribozyme fitness (log ratio) not below -2. Thanks!
Reply: Condition not met

Task item: Exam item: decide whether the reported polymerase ribozyme fitness (log ratio) for A22U A28G G80C C99U C108A G140C is at least -2.
Reply: Condition not met

Task item: Check this variant for polymerase ribozyme fitness (log ratio) at or above -2: A40U C93U U101G G128U
Reply: Condition not met

Task item: Form field: polymerase ribozyme fitness (log ratio) at least -2? Entry: A47U G50C A121U
Reply: Condition not met

Task item: Does G84U C93A U101C A107G G133U G141C have a reported polymerase ribozyme fitness (log ratio) of at least -2?
Reply: Condition not met
